# Test system: Pseudomonas aeruginosa
# METHOD: Activity of Pseudomonas aeruginosa PBP3 assessed as acylation rate constant
Entries and their K
ASSAY_READOUT: K

STRUCTURE_SMILES_STRING	DATA_VALUE
C[C@H]1[C@H](NC(=O)/C(=N\OC(C)(C)C(=O)O)c2csc(N)n2)C(=O)N1C(=O)NS(=O)(=O)n1nc(-c2cc(=O)c(O)c[nH]2)n(CCS(N)(=O)=O)c1=O	> 4 ×10⁵ /M/s
C[C@H]1[C@H](NC(=O)/C(=N\OC(C)(C)C(=O)O)c2csc(N)n2)C(=O)N1C(=O)NS(=O)(=O)n1nc(-c2cc(=O)c(O)c[nH]2)n(CCNS(C)(=O)=O)c1=O	4.1 ×10⁵ /M/s
C[C@H]1[C@H](NC(=O)/C(=N\OC(C)(C)C(=O)O)c2csc(N)n2)C(=O)N1C(=O)NS(=O)(=O)n1nc(-c2cc(=O)c(O)c[nH]2)n(CCC2(S(C)(=O)=O)CC2)c1=O	4.5 ×10⁵ /M/s
CC(C)(O/N=C(\C(=O)N[C@@H]1C(=O)N(C(=O)NS(=O)(=O)n2nc(-c3cc(=O)c(O)c[nH]3)n(CCCS(C)(=O)=O)c2=O)C1(C)C)c1csc(N)n1)C(=O)O	1.1 ×10⁵ /M/s
CC[C@H]1[C@H](NC(=O)/C(=N\OC(C)(C)C(=O)O)c2csc(N)n2)C(=O)N1C(=O)NS(=O)(=O)n1nc(-c2cc(=O)c(O)c[nH]2)n(CCCS(C)(=O)=O)c1=O	3.6 ×10⁵ /M/s
